- testSystem: Serine/threonine-protein phosphatase PP1-alpha catalytic subunit (Homo sapiens) (UniProt P62136)
- Sequence (P62136 whole entry, looked up): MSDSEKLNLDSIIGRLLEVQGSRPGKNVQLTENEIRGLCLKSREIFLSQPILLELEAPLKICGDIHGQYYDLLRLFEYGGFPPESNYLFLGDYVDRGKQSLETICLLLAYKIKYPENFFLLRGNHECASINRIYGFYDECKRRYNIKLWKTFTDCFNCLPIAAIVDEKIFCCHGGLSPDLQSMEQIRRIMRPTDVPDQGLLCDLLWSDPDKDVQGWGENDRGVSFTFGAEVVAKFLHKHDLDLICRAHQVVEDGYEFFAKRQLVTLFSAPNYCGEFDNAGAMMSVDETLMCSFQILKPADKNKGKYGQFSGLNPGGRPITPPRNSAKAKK
- methodDescription: inhibition of human PP1 catalytic subunit – biochemical, fluorescence, OMFP substrate, single point, counter-screen for PP5 inhibitor project, primary screen (AID 2235)
- reportedConditions: purified PP1alpha, at 6.7 µM, stronger effect = higher value
Hit rate of the full screen: of about 320,000 compounds, about 2,800 (0.88%) were called active. Only a selection was taken, and actives are over-represented in it overall.
# inhibition annotations
measuredProperty: inhibition (%)

- molecule: "Cc1cc(NC(=O)OC(C)C)ccc1-c1ccc(NC(=O)OC(C)C)cc1C"
  measuredProperty: "inhibition"
  recordedNumber: -5.37
- molecule: "CC1CCCCN1C(=O)Cn1c(=O)oc2cc(S(=O)(=O)N3CCCCC3)ccc21 (stereo unspecified)"
  measuredProperty: "inhibition"
  recordedNumber: 5.73
- molecule: "COCCNC(=O)Nc1ccc2nc(-c3ccco3)c(-c3ccco3)nc2c1"
  measuredProperty: "inhibition"
  recordedNumber: 22.8
- molecule: "COc1ccc(CCNC(=O)C2CC3Cn4c(nc5cc(C)c(C)cc54)C3N2C)cc1 (stereo unspecified)"
  measuredProperty: "inhibition"
  recordedNumber: -2.39
- molecule: "CCOc1ccc(C(=O)NC(C(=O)NCc2ccccn2)C(C)C)cc1 (stereo unspecified)"
  measuredProperty: "inhibition"
  recordedNumber: 1.59
- molecule: "CCc1ccc(N(CC)c2ncnc3nc[nH]c23)cc1"
  measuredProperty: "inhibition"
  recordedNumber: 2.16
